- Test system: MOLM-13 cells
- experiment.summary: MOLM-13 cell proliferation assay (alamarBlue)
- Type: cell-based
- measurement.parameters: inhibition of cell proliferation, 96 hours, human AML cell line
pIC50: −log10 of the molar value.
readout.type: pIC50

(A) C[C@@H]1C(=O)N(C)c2ccc(Nc3ccc(C(=O)NC4CCCC4)cc3)cc2N1C1CCCC1 [Example 1]
(B) C[C@@H]1C(=O)N(C)c2ccc(Nc3ccc(C(=O)N(C)C)cc3)cc2N1C1CCCC1 [Example 8]
Request: Which record would sort first by descending pIC50, A or B ? Output the label that corresponds to your choice.
Result: B

###

- System: MOLM-13 cells
- experiment.summary: MOLM-13 cell proliferation assay (alamarBlue)
- Assay type: cell-based
- measurement.parameters: inhibition of cell proliferation, 96 hours, human AML cell line
readout.type: IC50 (nM)

1) C[C@@H]1C(=O)N(C)c2ccc(Nc3ccc(C(=O)N4CC5(CCS5(=O)=O)C4)cc3)cc2N1C1CCOCC1	1790

(A) COc1ccc(CN2c3cc(Nc4ccc(C(=O)NC5CCN(C)CC5)cc4)ccc3N(C)C(=O)[C@H]2C)cc1
(B) C[C@@H]1C(=O)N(C)c2ccc(Nc3ccc(C(=O)NCCN4CCN(C)CC4)cc3)cc2N1C1CCOCC1
(C) C[C@@H]1C(=O)N(C)c2ccc(Nc3ccc(C(=O)N4CCOCC4)cc3)cc2N1C1CCCC1
Request: // sort entries: IC50, high to low Reply with the labels, ordered as the question asks.
Result: B, C, A

###

- test.system: BRD4 Bromo Domain 1 [BRD4(1)] (Homo sapiens)
- Construct: N-terminally His6-tagged BRD4(1) (amino acids 67-152)
- experiment.summary: BRD4(1)/acetylated peptide H4 binding assay (TR-FRET)
- measurement.parameters: inhibition of interaction between His6-tagged BRD4(1) (amino acids 67-152) and acetylated histone H4 peptide
pIC50: −log10 of the molar value.
readout.type: pIC50

1) C[C@@H]1C(=O)N(C)c2ccc(Nc3ccc(C(=O)NCC4COC4)cc3)cc2N1Cc1ccccc1	6.60

(a) C[C@@H]1C(=O)N(C)c2ccc(Nc3ccc(S(=O)(=O)N4CCN(C)CC4)cc3)cc2N1Cc1ccccc1
(b) C[C@@H]1C(=O)N(C)c2ccc(Nc3ccc(C(=O)NC4CN(C)C4)cc3)cc2N1C1CCOCC1
Request: Response body: label of entry with the larger pIC50; valid values a , b . Lab note: record the label of whichever item you select.
Result: a

(I) COc1ccc(CN2c3cc(Nc4ccc(S(=O)(=O)N5CCN(C)CC5)cc4)ccc3N(C)C(=O)[C@H]2C)cc1
(II) C[C@@H]1C(=O)N(C)c2ccc(Nc3ccc(C(=O)N4CC5(CCS5(=O)=O)C4)cc3)cc2N1C1CCOCC1
Request: Please tell me which of the two, I or II , has the higher reported pIC50 value. In your reply, give the label of the chosen option.
Result: I
(I: 6.99, II: 6.72)

(A) COc1cc(C(=O)NC2CCC(N3CCN(CC4CC4)CC3)CC2)ccc1Nc1ccc2c(c1)N(C1CCOCC1)[C@H](C)C(=O)N2C (some centres unmarked)
(B) C[C@@H]1C(=O)N(C)c2ccc(Nc3ccc(S(=O)(=O)N4CCN(C)CC4)cc3)cc2N1C1CCOCC1
Request: # returns the entry with the larger pIC50; inputs A and B Return value: the label identifying the chosen record.
Result: B

(1) C[C@@H]1C(=O)N(C)c2ccc(Nc3ccc(S(=O)(=O)N(C)C)cc3)cc2N1Cc1ccccc1
(2) COc1cc(C(=O)NC2CCN(C)CC2)ccc1Nc1ccc2c(c1)N(C1CCOCC1)[C@H](C)C(=O)N2C
Request: Could you tell me which of these two has the smaller pIC50 figure? First: 1 Second: 2 The response must carry the label of the picked entry.
Result: 2
(2: 6.32, 1: 6.55)

(I) COc1ccc(CN2c3cc(Nc4ccc(S(=O)(=O)N(C)C)cc4)ccc3N(C)C(=O)[C@H]2C)cc1
(II) COc1ccc(CN2c3cc(Nc4ccc(S(=O)(=O)N5CCN(C(C)C)CC5)cc4)ccc3N(C)C(=O)[C@H]2C)cc1
Request: Could you point out whether the larger pIC50 belongs to I or to II ? Please reply using the label of the selected record.
Result: II

(I) COc1ccc(CN2c3cc(Nc4ccc(S(=O)(=O)N5CCOCC5)cc4)ccc3N(C)C(=O)[C@H]2C)cc1
(II) C[C@@H]1C(=O)N(C)c2ccc(Nc3ccc(C(=O)N4CC5(CCS5(=O)=O)C4)cc3)cc2N1Cc1ccccc1
(III) C[C@@H]1C(=O)N(C)c2ccc(Nc3ccc(C(=O)NC4CCN(C)CC4)cc3)cc2N1Cc1c(F)cccc1F (stereo in doubt)
Request: Order the items by recorded pIC50; the first position goes to the largest value. Give the order by naming the labels one after another as requested.
Result: I, II, III
